- Test system: STAT1 (phosphorylated at Tyr701) in NCI-H1373 cells
- METHOD: Phospho-STAT1 (Tyr701) LANCE Ultra TR-FRET detection assay
- Format: cell-based
- SETUP_CONDITIONS: Homo sapiens, NCI-H1373, 48 h, induction of pSTAT1 in NCI-H1373 cells, 48 hours incubation; normalized to 10 uM positive control and DMSO; 4-parameter fit; read-out: NH1373 pSTAT1 EC50
PARAMETER: log10 EC50 (log10 of the value in nM)
Remember, log10 of EC50, in nM.

Short answer please: log10 EC50, STAT1 (phosphorylated at Tyr701) in NCI-H1373 cells, entry O=c1[nH]ncc(N[C@H]2C[C@@H](O)C[C@@H](Cn3ccc4cc(-c5ncc(C(F)(F)F)cn5)c(F)cc4c3=O)C2)c1C(F)(F)F [Example 62]
1.95

Query for STAT1 (phosphorylated at Tyr701) in NCI-H1373 cells: what log10 EC50 does the record show for CC(O)(c1cnc(-c2cc3ccn(C[C@@H]4CCC[C@H](Nc5cn[nH]c(=O)c5C(F)(F)F)C4)c(=O)c3cc2F)nc1)C(F)F (stereo partly drawn) [Example 27] ?
1.23

Could you share what log10 EC50 was measured for [2H]C([2H])([2H])Oc1cnc(-c2cc3ncn(C[C@@H]4CCC[C@H](Nc5cn[nH]c(=O)c5C(F)(F)F)C4)c(=O)c3cc2F)nc1 [Example 26] , tested on STAT1 (phosphorylated at Tyr701) in NCI-H1373 cells?
0.75

State its log10 EC50 on STAT1 (phosphorylated at Tyr701) in NCI-H1373 cells: COc1cnc(-c2cc3c(F)cn(C[C@@H]4CCC[C@H](Oc5cn[nH]c(=O)c5C(F)(F)F)C4)c(=O)c3c(F)c2F)nc1 [Example 53]
0.32

Recorded log10 EC50 for CC(F)(F)c1cnc(-c2cc3ccn(C[C@@H]4CCC[C@H](Nc5cn[nH]c(=O)c5C(F)(F)F)C4)c(=O)c3cc2F)nc1 [Example 4] with STAT1 (phosphorylated at Tyr701) in NCI-H1373 cells, please?
0.35

Provide the documented log10 EC50 with STAT1 (phosphorylated at Tyr701) in NCI-H1373 cells as the system for CC(F)(F)c1cnc(-c2cc3c(F)cn(C[C@@H]4CCC[C@H](Nc5cn[nH]c(=O)c5C(F)(F)F)C4)c(=O)c3cc2F)nc1 [Example 42]
0.39

Query for STAT1 (phosphorylated at Tyr701) in NCI-H1373 cells: what log10 EC50 does the record show for CC(C)(O)c1cnc(-c2cc3c(F)cn(C[C@@H]4CCC[C@H](Nc5cn[nH]c(=O)c5C(F)(F)F)C4)c(=O)c3c(F)c2F)nc1 [Example 37] ?
0.39

API: value(readout= log10 EC50, system= STAT1 (phosphorylated at Tyr701) in NCI-H1373 cells, query= CC(F)(F)c1cnc(-c2cc3ccn(C[C@@H]4CCC[C@H](Nc5cn[nH]c(=O)c5C(F)(F)F)C4)c(=O)c3c(F)c2F)nc1 [Example 20] )
0.21

Recall the recorded log10 EC50 for O=c1[nH]ncc(N[C@@H]2C[C@H](Cn3ccc4cc(-c5ncc(C(F)(F)F)cn5)c(F)cc4c3=O)CC(F)(F)C2)c1C(F)(F)F (single isomer, unassigned) [Example 66] with STAT1 (phosphorylated at Tyr701) in NCI-H1373 cells and state it.
1.47

Checklist item: log10 EC50 tested on STAT1 (phosphorylated at Tyr701) in NCI-H1373 cells, entry COc1nc(-c2cc3ccn(C[C@@H]4CCC[C@H](Nc5cn[nH]c(=O)c5C(F)(F)F)C4)c(=O)c3cc2F)ncc1C#N [Example 3] , value?
0.59

Which measured log10 EC50 belongs to O=c1[nH]ncc(N[C@H]2CCC[C@@H](Cn3cc(F)c4cc(-c5ncc(C(F)(F)F)cn5)c(F)c(F)c4c3=O)C2)c1C(F)(F)F [Example 33] , tested on STAT1 (phosphorylated at Tyr701) in NCI-H1373 cells?
0.18

Give log10 EC50 (STAT1 (phosphorylated at Tyr701) in NCI-H1373 cells) of the following molecule: CC(C)(O)c1cnc(-c2cc3c(cc2F)C(=O)N(C[C@@H]2CCC[C@H](Nc4cn[nH]c(=O)c4C(F)(F)F)C2)CC3)nc1 [Example 73]
0.89

Item O=C1c2cc(F)c(-c3ncc(C(F)(F)F)cn3)cc2CN1C[C@@H]1CCC[C@H](Nc2cn[nH]c(=O)c2C(F)(F)F)C1 [Example 74] with STAT1 (phosphorylated at Tyr701) in NCI-H1373 cells - log10 EC50?
0.96

Entry [2H]C([2H])([2H])Oc1cnc(-c2cc3c(F)cn(C[C@@H]4CCC[C@H](Nc5cn[nH]c(=O)c5C(F)(F)F)C4)c(=O)c3cc2F)nc1 [Example 45] , system STAT1 (phosphorylated at Tyr701) in NCI-H1373 cells: what log10 EC50 was measured?
1.02

Tell me reported log10 EC50 for O=c1[nH]ncc(O[C@H]2CCC[C@@H](Cn3ccc4cc(-c5ncc(C(F)F)cn5)c(F)c(F)c4c3=O)C2)c1C(F)(F)F [Example 54] , tested with STAT1 (phosphorylated at Tyr701) in NCI-H1373 cells.
0.38

Which measured log10 EC50 belongs to O=c1[nH]ncc(N[C@H]2CCC[C@@H](Cn3ccc4cc(-c5ncc(F)cn5)c(F)cc4c3=O)C2)c1C(F)(F)F [Example 12] , tested on STAT1 (phosphorylated at Tyr701) in NCI-H1373 cells?
1.37

Short answer please: log10 EC50, STAT1 (phosphorylated at Tyr701) in NCI-H1373 cells, entry O=c1[nH]ncc(N[C@H]2CCC[C@@H](Cn3ccc4cc(-c5ncc(OC(F)F)cn5)c(F)cc4c3=O)C2)c1C(F)(F)F [Example 5]
0.68

State its log10 EC50 on STAT1 (phosphorylated at Tyr701) in NCI-H1373 cells: CS(=N)(=O)c1cnc(-c2cc3ccn(C[C@@H]4CCC[C@H](Nc5cn[nH]c(=O)c5C(F)(F)F)C4)c(=O)c3c(F)c2F)nc1 (stereo partly drawn) [Example 24]
1.58

Request: log10 EC50, test system STAT1 (phosphorylated at Tyr701) in NCI-H1373 cells, entry O=c1[nH]ncc(N[C@H]2CCO[C@@H](Cn3ccc4cc(-c5nc6ccccn6n5)c(F)cc4c3=O)C2)c1C(F)(F)F [Example 64]
1.56

Reported log10 EC50 for STAT1 (phosphorylated at Tyr701) in NCI-H1373 cells, given O=c1[nH]ncc(N[C@H]2CCC[C@@H](Cn3ccc4cc(-c5ccc(C(F)F)cn5)c(F)c(F)c4c3=O)C2)c1C(F)(F)F [Example 19] ?
0.68

Look up log10 EC50 with STAT1 (phosphorylated at Tyr701) in NCI-H1373 cells for this molecule: COc1cnc(-c2cc3c(cc2F)C(=O)N(C[C@@H]2CCC[C@H](Nc4cn[nH]c(=O)c4C(F)(F)F)C2)CC3)nc1 [Example 70]
1.05

Request - read-out log10 EC50 | tested on STAT1 (phosphorylated at Tyr701) in NCI-H1373 cells | molecule COc1cnc(-c2cc3c(Cl)cn(C[C@@H]4CCC[C@H](Nc5cn[nH]c(=O)c5C(F)(F)F)C4)c(=O)c3cc2F)nc1 [Example 58]
0.77

Identify the measured log10 EC50 of CS(=O)(=O)c1ccc(-c2cc3ccn(C[C@@H]4CCC[C@H](Nc5cn[nH]c(=O)c5C(F)(F)F)C4)c(=O)c3cc2F)nc1 [Example 11] for STAT1 (phosphorylated at Tyr701) in NCI-H1373 cells.
1.13

Form field: log10 EC50 recorded for CC(C)(O)c1cnc(-c2cc3c(F)cn(C[C@@H]4CCC[C@H](Oc5cn[nH]c(=O)c5C(F)(F)F)C4)c(=O)c3c(F)c2F)nc1 [Example 48] with STAT1 (phosphorylated at Tyr701) in NCI-H1373 cells (enter value)
0.01
